# System: K-562 leukemia
# PROTOCOL DETAILS: NCI tumour cell line growth inhibition, 48 h
READOUT TYPE: TGI

Example entries begin here.
{"MOLECULE": "Cc1ccc2[nH]c3c(c2c1)C1CCC(C(C)(C)C)CC1C1C(=O)N(c2ccc(Oc4ccccc4)cc2)C(=O)C31 (stereo unspecified)", "STUDY SYSTEM": "K-562 leukemia", "TGI": "31.3 µM"}
{"MOLECULE": "Cc1cccc(-c2cc(=O)c3cccnc3[nH]2)c1", "STUDY SYSTEM": "K-562 leukemia", "TGI": "> 100 µM"}
{"MOLECULE": "COc1cc(OC)c(-n2[nH]c(=O)n(C)c2=O)c(OC)c1", "STUDY SYSTEM": "K-562 leukemia", "TGI": "> 100 µM"}

Prompt: Please give the documented TGI of COc1cccc(C2CC(C)(O)Oc3cc4c(cc32)OCO4)c1 (stereo unspecified)
Response: > 100 µM

Prompt: Please give the documented TGI of "CCOc1ccc2c(c1)[n+]([O-])c(C(N)=O)c(N)[n+]2[O-]"
Response: > 100 µM

Prompt: Please give the documented TGI of "Cc1cccc(-c2nc(=S)[nH][nH]2)c1"
Response: > 100 µM

Prompt: Please give the documented TGI of "O=C(Nc1ccc(Cl)cc1)c1cc(S(=O)(=O)Nc2nc3ncccc3[nH]2)c(SSc2cc(Cl)c(C(=O)Nc3ccc(Cl)cc3)cc2S(=O)(=O)Nc2nc3ncccc3[nH]2)cc1Cl"
Response: > 100 µM

Prompt: Please give the documented TGI of CCCCCCCCCCCC(c1ccccc1)[N+](C)(C)C (stereo unspecified)
Response: 4.09 µM

Prompt: Please give the documented TGI of COC(=O)C12C(=O)CC3CCC1C32C(=O)OC (stereo unspecified)
Response: > 100 µM

###

# System: UO-31 renal
# PROTOCOL DETAILS: NCI tumour cell line growth inhibition, 48 h
READOUT TYPE: GI50

{"STRUCTURE SMILES": "COc1ccc(-c2nn3ncccc3c2-c2ccnc(Nc3ccc(F)c(F)c3)n2)cc1", "READOUT TYPE": "GI50", "RESULT": "5.8 µM"}
{"STRUCTURE SMILES": "COc1cc2c(cc1OCCCCCOc1ccc(-c3nc4ccccc4s3)cc1)N=C[C@@H]1CCCN1C2=O", "READOUT TYPE": "GI50", "RESULT": "2.5 µM"}
{"STRUCTURE SMILES": "Nc1nc(N)c2cc(S(=O)(=O)c3cccc(C(F)(F)F)c3)ccc2n1", "READOUT TYPE": "GI50", "RESULT": "4.96 µM"}
{"STRUCTURE SMILES": "Cc1cc(NC(=O)NCCCOc2ccc(N3C(N)=NC(N)=NC3(C)C)cc2Cl)ccc1S(=O)(=O)F", "READOUT TYPE": "GI50", "RESULT": "> 82.4 µM"}

Next compound, please.
Prompt: Please give the documented GI50 of "O=c1cc(-c2cccc(Cl)c2)[nH]c2cc3c(cc12)OCO3"
Response: 0.743 µM

###

# Test system: DU-145 prostate
# PROTOCOL DETAILS: NCI tumour cell line growth inhibition, 48 h; in the data active = GI50 below about 0.43 µM; inactive = the rest
Could you please pick one outcome from this set? active, inactive

Please review the following examples before continuing.
{"MOLECULE": "CC(=O)Nc1ccc(CC[C@H]2CCC/C=C/[C@@H]3C[C@H](O)C[C@H]3[C@H](O)/C=C/C(=O)O2)cc1", "STUDY SYSTEM": "DU-145 prostate", "DISCRETE LABEL": "active"}
{"MOLECULE": "CC(C)Cn1cnc2c(N)nc3ccccc3c21", "STUDY SYSTEM": "DU-145 prostate", "DISCRETE LABEL": "inactive"}

Prompt: Returns: the outcome recorded for "CCOC(=O)c1sc2nc(=S)[nH]c(NC(N)=S)c2c1C" in this assay.
Response: inactive

Prompt: Returns: the outcome recorded for "CN(C)CCN1C(=O)c2cccc3cc(N)cc(c23)C1=O" in this assay.
Response: inactive

Prompt: Returns: the outcome recorded for "Nc1nc(N)c2cc(S(=O)(=O)c3cccc(C(F)(F)F)c3)ccc2n1" in this assay.
Response: inactive

Prompt: Returns: the outcome recorded for "COc1ccccc1C1C(C#N)=C(N)SC(N)=C1C#N" in this assay.
Response: inactive

Prompt: Returns: the outcome recorded for CCN(CC)CCN1C(=O)C2C3C(C)=CC(OC(C)=O)(CC3C)C2C1=O (stereo not drawn) in this assay.
Response: inactive

###

# Test system: DMS 273 small cell lung
# PROTOCOL DETAILS: NCI tumour cell line growth inhibition, 48 h
READOUT TYPE: TGI

Example entries begin here.
{"MOLECULE": "Cc1c2ccccc2c(=O)n2c(-c3ccccn3)cccc12", "STUDY SYSTEM": "DMS 273 small cell lung", "RESULT": "> 100 µM"}
{"MOLECULE": "O=c1c2ccccc2c(=O)n2n1-c1cccc(c1)CSSCc1cccc-2c1", "STUDY SYSTEM": "DMS 273 small cell lung", "RESULT": "> 100 µM"}
{"MOLECULE": "CC1=NC2(C(=O)O)C3(C(=O)O)N=C(C)OC3(C(F)(F)F)C2(C(F)(F)F)O1 (stereo unspecified)", "STUDY SYSTEM": "DMS 273 small cell lung", "RESULT": "> 100 µM"}
{"MOLECULE": "CC1COS(=O)N1c1ccccc1 (stereo unspecified)", "STUDY SYSTEM": "DMS 273 small cell lung", "RESULT": "> 100 µM"}

Prompt: Please give the documented TGI of O=C1C2C3SC(c4cc5ccccc5cc43)C2C(=O)N1c1ccccc1 (stereo unspecified)
Response: > 100 µM

Prompt: Please give the documented TGI of O=C1/C(=C/c2cc(O)c(O)c(O)c2)Oc2cc(O)cc(OC3OC(CO)C(O)C(O)C3O)c21 (stereo unspecified)
Response: 3.67 µM

###

# Tested on: OVCAR-8 ovarian
# PROTOCOL DETAILS: NCI tumour cell line growth inhibition, 48 h
Here the recorded TGI is given for each entry.

Prompt: Please give the documented TGI of [N-]=[N+]=NC1C(Cl)C(=O)NC(=O)N1[C@H]1C[C@H](O)[C@@H](CO)O1 (some centres not stated)
Response: > 100 µM

Prompt: Please give the documented TGI of "CN(C)C(=C1C(Br)=C(Br)C(Br)=C1Br)N(C)C"
Response: > 100 µM

Prompt: Please give the documented TGI of "CCOC(=O)c1ccc(N2C(=O)/C(=C/c3ccc(N(CCC#N)CCC#N)cc3)N=C2c2cc([N+](=O)[O-])ccc2Cl)cc1"
Response: > 100 µM

Prompt: Please give the documented TGI of "COc1ccc(-c2cc(=O)c3c(C)ccnc3[nH]2)cc1"
Response: > 100 µM

Prompt: Please give the documented TGI of "COc1cc2ncnc(Nc3cccc(Br)c3)c2cc1OC"
Response: > 35.1 µM

###

# Test system: TK-10 renal
# PROTOCOL DETAILS: NCI tumour cell line growth inhibition, 48 h
READOUT TYPE: GI50

Prompt: Supply GI50 measured with TK-10 renal for "[O-]c1ccccc1C=NCCN=Cc1ccccc1[O-].[O]=[U+2]=[O]" .
Response: 26.3 µM

Prompt: Supply GI50 measured with TK-10 renal for "O=C(Nc1ccccc1/C=C/c1n[nH]c2ccccc12)c1ccccc1" .
Response: 4.85 µM

Prompt: Supply GI50 measured with TK-10 renal for "Nc1nc(N)c2cc(S(=O)(=O)c3cccc(C(F)(F)F)c3)ccc2n1" .
Response: 7.78 µM

Prompt: Supply GI50 measured with TK-10 renal for "C=CC(=O)N1CCN([C@@H](CC2CC2)c2ccc([C@H](C)Nc3ncc4c(n3)N(CC)C(=O)OC4)cc2)CC1" .
Response: 9.02 µM

Prompt: Supply GI50 measured with TK-10 renal for "COc1cc2c(cc1OCCCCCOc1ccc(-c3nc4ccccc4s3)cc1)N=C[C@@H]1CCCN1C2=O" .
Response: 8.48 µM

Prompt: Supply GI50 measured with TK-10 renal for "CN(C)CCN1C(=O)c2cccc3cc(N)cc(c23)C1=O" .
Response: 3.27 µM

Prompt: Supply GI50 measured with TK-10 renal for "COc1ccc(-c2nn3ncccc3c2-c2ccnc(Nc3ccc(F)c(F)c3)n2)cc1" .
Response: 14.3 µM

###

Here the recorded TGI is given for each entry.
# System: BT-549 breast
# PROTOCOL DETAILS: NCI tumour cell line growth inhibition, 48 h

{"COMPOUND": "N#Cc1nc2cc(Cl)c(Cl)cc2nc1-c1ccc(Cl)cc1", "STUDY SYSTEM": "BT-549 breast", "TGI": "> 100 µM"}
{"COMPOUND": "[Cu].c1ccc2c(c1)C1=NC2=NC2=NC(=NC3=NC(=NC4=NC(=N1)c1ccccc14)c1ccccc13)c1ccccc12", "STUDY SYSTEM": "BT-549 breast", "TGI": "> 100 µM"}
{"COMPOUND": "COc1nc2ncc([C@@H](OC(C)=O)[C@@H](COC(C)=O)OC(C)=O)nc2c(=O)n1C", "STUDY SYSTEM": "BT-549 breast", "TGI": "> 100 µM"}

Prompt: Please give the documented TGI of "Cc1cc2c3c(c1)S(=O)(=O)c1cc(Cl)ccc1N3CCC2"
Response: > 100 µM

Prompt: Please give the documented TGI of "O=C1c2cccnc2S(=O)(=O)N1c1ccc(Br)cc1"
Response: > 100 µM

Prompt: Please give the documented TGI of CN(C)CC1CCC/C(=C\c2ccc(Cl)c(Cl)c2)C1=O (stereo not drawn)
Response: 5.01 µM
